Tested on: panel of cancer cell lines
Assay: Cell viability (CellTiter-Glo) dose-response across cancer cell line panel;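 note: after 72 h compound incubation with CellTiter-Glo ATP readout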
Assay type: cell-based, human
Details: Homo sapiens, NCI-H1666, cell line NCI-H1666
Method: Next, we explored the effect of CSN5 inhibition on the viability of cancer cells. […] A standardized CellTiter-Glo Assay (Promega #G7570) based on the quantification of ATP was applied according to the manufacturer's protocol to measure the amount of viable cells in culture. […] EC50 values were calculated from the plot of percentage of inhibition versus inhibitor concentration using the nonlinear regression analysis software Origin 7.5SR6 (OriginLab Corp.).
pEC50: −log10 of the molar value.

COMPOUND	pEC50
CC(C)C[C@H](NC(=O)[C@H](Cc1ccccc1)NC(=O)c1cnccn1)B(O)O [Bortezomib]	8.11

Taken from paper PMC5078989.
